# System: human platelet suspension
# METHOD NOTES: U46619-induced platelet aggregation in human platelet suspension
# Type: cell-based
# MEASUREMENT PARAMETERS: Homo sapiens, Platelet, U46619-induced aggregation, platelet suspension; read-out: P.S(U46619) IC50
MEASUREMENT NAME: pIC50
Recall that pIC50 is obtained by taking minus log10 of the concentration measured in molar.

// known answers, use as guide
Cc1ccc(Cn2c(-c3ccc(C)o3)nc3cc(Cl)ccc32)cc1 [Example 51b] ... 4.20
Cc1cccc(Cn2c(-c3ccc(C)o3)nc3cc(F)ccc32)c1 [Example 40a] ... 4.84
Cc1ccc(-c2nc3cc(Cl)c(Cl)cc3n2Cc2ccccc2C)o1 ... 5.24
Cc1ccc(-c2nc3ccccc3n2Cc2ccccc2)o1 ... 5.61

Let us move to another entry and its pIC50.
Problem: So what does the record say about pIC50 for COc1ccc(Cn2c(-c3ccc(C)o3)nc3ccc(Cl)cc32)cc1 [Example 49b] ?
Solution: 4.53
